- method-notes: Acute toxicity test, intraperitoneal
- assay-setup: mouse, in vivo, ip, ICR mice, male, 8 weeks old, observed for a week
value-type: LD50 at 168 h

Tell us which LD50 at 168 h value is on record for Nc1nc2c(ncn2[C@@H]2O[C@H](COP(=O)(O)O)C[C@H]2O)c(=O)[nH]1 [3'-dGuo-5'-MP, 3'-deoxyguanosine-5'-monophosphate]
> 1000 mg/kg

Specify reported LD50 at 168 h for the molecule shown: Nc1ncnc2c1ncn2[C@@H]1O[C@H](COP(=O)(O)O)C[C@H]1O [3'-dAdo-5'-MP, 3'-deoxyadenosine-5'-monophosphate]
500 mg/kg

Measured values drawn from patent US4432348A for this set.
